Every entry's value here was drawn from patent US20110077294A1.

Provide the recorded Blood glucose % change compared to control, day 1 for the entries that follow.
Tested on: C57BL/KsBom-db/db mice
measurement-protocol: Blood glucose profile of db/db mice during daily treatment (antihyperglycemic activity)
Assay type: in vivo
experimental-parameters: 25 mg/kg, day 1, vs sham
Give bare numbers, in %.

1. CC(C)NCC(O)COc1ccc2c(=O)cc(-c3cc(O)cc(O)c3)oc2c1 (stereo in doubt) [S-002-857 (R)]
0.0

Attention now turns to another entry.
Data request: Check the records and state Blood glucose % change compared to control, day 1 for CC(C)NC[C@H](O)COc1ccc2c(=O)cc(-c3cc(O)cc(O)c3)oc2c1 [S-002-857 (S)]
Data returned: −1.60

###

System: C57BL/KsBom-db/db mice
measurement-protocol: Blood glucose profile of db/db mice during daily treatment (antihyperglycemic activity)
Type: in vivo
experimental-parameters: 25 mg/kg, day 4, vs sham
test-readout: Blood glucose % change compared to control, day 4 (%)
Answers are plain numbers, in %.

Answer for every listed entry: what is its Blood glucose % change compared to control, day 4? The entries follow.
1. CC(C)NCC(O)COc1ccc2c(=O)cc(-c3cc(O)cc(O)c3)oc2c1 (stereo in doubt) [S-002-857 (R)]
2. CC(C)(C)NC[C@@H](O)COc1ccc2c(=O)cc(-c3cc(OCc4ccccc4)cc(OCc4ccccc4)c3)oc2c1 [S-002-853 (R)]
3. CC(C)(C)NC[C@H](O)COc1ccc2c(=O)cc(-c3cc(OCc4ccccc4)cc(OCc4ccccc4)c3)oc2c1 [S-002-853 (S)]
4. CC(C)NC[C@H](O)COc1ccc2c(=O)cc(-c3cc(O)cc(O)c3)oc2c1 [S-002-857 (S)]

Data returned:
["−11.5", "−18.1", "−54.9", "−12.7"]

###

System: C57BL/KsBom-db/db mice
measurement-protocol: Blood glucose profile of db/db mice during daily treatment (antihyperglycemic activity)
Format: in vivo
experimental-parameters: 25 mg/kg, day 7
test-readout: Blood glucose, day 7 post treatment (mM)
Answers are plain numbers, in mM.

Look over these answered cases.
1. CC(C)NCC(O)COc1ccc2c(=O)cc(-c3cc(O)cc(O)c3)oc2c1 (stereo in doubt) [S-002-857 (R)]
11.7
2. CC(C)(C)NC[C@@H](O)COc1ccc2c(=O)cc(-c3cc(OCc4ccccc4)cc(OCc4ccccc4)c3)oc2c1 [S-002-853 (R)]
14.5
3. CC(C)NC[C@H](O)COc1ccc2c(=O)cc(-c3cc(O)cc(O)c3)oc2c1 [S-002-857 (S)]
9.41

Attention now turns to another entry.
Data request: Check the records and state Blood glucose, day 7 post treatment for CC(C)(C)NC[C@H](O)COc1ccc2c(=O)cc(-c3cc(OCc4ccccc4)cc(OCc4ccccc4)c3)oc2c1 [S-002-853 (S)]
Data returned: 10.6

###

Provide the recorded Blood glucose, day 5 post treatment for the entries that follow.
System: C57BL/KsBom-db/db mice
measurement-protocol: Blood glucose profile of db/db mice during daily treatment (antihyperglycemic activity)
Type: in vivo
experimental-parameters: 25 mg/kg, day 5
Numbers only, in mM.

Look over these answered cases.
1. CC(C)(C)NC[C@@H](O)COc1ccc2c(=O)cc(-c3cc(OCc4ccccc4)cc(OCc4ccccc4)c3)oc2c1 [S-002-853 (R)]
12.3
2. CC(C)(C)NC[C@H](O)COc1ccc2c(=O)cc(-c3cc(OCc4ccccc4)cc(OCc4ccccc4)c3)oc2c1 [S-002-853 (S)]
8.80
3. CC(C)NC[C@H](O)COc1ccc2c(=O)cc(-c3cc(O)cc(O)c3)oc2c1 [S-002-857 (S)]
10.1

Attention now turns to another entry.
Data request: GET Blood glucose, day 5 post treatment | system: C57BL/KsBom-db/db mice | item: CC(C)NCC(O)COc1ccc2c(=O)cc(-c3cc(O)cc(O)c3)oc2c1 (stereo in doubt) [S-002-857 (R)]
Data returned: 11.9

###

Provide the recorded Serum lipid profile: Triglycerides for the entries that follow.
Test system: C57BL/KsBom-db/db mice
measurement-protocol: Serum lipid profile of treated db/db mice (antidyslipidemic activity)
Format: in vivo
experimental-parameters: 25 mg/kg
Answers are plain numbers, in mg/dL.

1. CC(C)(C)NC[C@@H](O)COc1ccc2c(=O)cc(-c3cc(OCc4ccccc4)cc(OCc4ccccc4)c3)oc2c1 [S-002-853 (R)]
132.0
2. CC(C)NC[C@H](O)COc1ccc2c(=O)cc(-c3cc(O)cc(O)c3)oc2c1 [S-002-857 (S)]
124
3. CC(C)NCC(O)COc1ccc2c(=O)cc(-c3cc(O)cc(O)c3)oc2c1 (stereo in doubt) [S-002-857 (R)]
130

Data request: Check the records and state Serum lipid profile: Triglycerides for CC(C)(C)NC[C@H](O)COc1ccc2c(=O)cc(-c3cc(OCc4ccccc4)cc(OCc4ccccc4)c3)oc2c1 [S-002-853 (S)]
Data returned: 115

###

Provide the recorded Blood glucose % change compared to control, 90 min post glucose load for the entries that follow.
Test system: C57BL/KsBom-db/db mice
measurement-protocol: Oral glucose tolerance test (OGTT) on day 10 in db/db mice
Format: in vivo
experimental-parameters: 25 mg/kg, OGTT day 10, 90 min, vs sham
Procedure: C57BL/KsBom-db/db mice (12-18 weeks old), weighing around 35+g bred in the animal house of CDRI, Lucknow, were used in the present experiments. […] Body weight of each animal was measured daily from day 1 to day 10 of the experiment. […] Blood glucose was measured at −30.0 min and test compounds were administered. The blood glucose was again measured at 0 min just post treatment and at this juncture glucose solution was given at a dose of 3 gm/kg to all the groups including the vehicle treated group. […]

1. CC(C)(C)NC[C@H](O)COc1ccc2c(=O)cc(-c3cc(OCc4ccccc4)cc(OCc4ccccc4)c3)oc2c1 [S-002-853 (S)]
−45.5%

Answer for every listed entry: what is its Blood glucose % change compared to control, 90 min post glucose load? The entries follow.
1. CC(C)NC[C@H](O)COc1ccc2c(=O)cc(-c3cc(O)cc(O)c3)oc2c1 [S-002-857 (S)]
2. CC(C)(C)NC[C@@H](O)COc1ccc2c(=O)cc(-c3cc(OCc4ccccc4)cc(OCc4ccccc4)c3)oc2c1 [S-002-853 (R)]
3. CC(C)NCC(O)COc1ccc2c(=O)cc(-c3cc(O)cc(O)c3)oc2c1 (stereo in doubt) [S-002-857 (R)]

Data returned:
−31.5%
+17.0%
−7.39%

###

Provide the recorded Blood glucose % change compared to control, 60 min post glucose load for the entries that follow.
Test system: C57BL/KsBom-db/db mice
measurement-protocol: Oral glucose tolerance test (OGTT) on day 10 in db/db mice
Format: in vivo
experimental-parameters: 25 mg/kg, OGTT day 10, 60 min, vs sham

Look over these answered cases.
1) CC(C)NC[C@H](O)COc1ccc2c(=O)cc(-c3cc(O)cc(O)c3)oc2c1 [S-002-857 (S)]
−26.9%
2) CC(C)NCC(O)COc1ccc2c(=O)cc(-c3cc(O)cc(O)c3)oc2c1 (stereo in doubt) [S-002-857 (R)]
−10.0%
3) CC(C)(C)NC[C@@H](O)COc1ccc2c(=O)cc(-c3cc(OCc4ccccc4)cc(OCc4ccccc4)c3)oc2c1 [S-002-853 (R)]
0.00%

Attention now turns to another entry.
Data request: Check the records and state Blood glucose % change compared to control, 60 min post glucose load for CC(C)(C)NC[C@H](O)COc1ccc2c(=O)cc(-c3cc(OCc4ccccc4)cc(OCc4ccccc4)c3)oc2c1 [S-002-853 (S)]
Data returned: −48.3%

###

Provide the recorded Blood glucose, day 4 post treatment for the entries that follow.
Test system: C57BL/KsBom-db/db mice
measurement-protocol: Blood glucose profile of db/db mice during daily treatment (antihyperglycemic activity)
Format: in vivo
experimental-parameters: 25 mg/kg, day 4
Numbers only, in mM.

Answer for every listed entry: what is its Blood glucose, day 4 post treatment? The entries follow.
1. CC(C)NCC(O)COc1ccc2c(=O)cc(-c3cc(O)cc(O)c3)oc2c1 (stereo in doubt) [S-002-857 (R)]
2. CC(C)(C)NC[C@H](O)COc1ccc2c(=O)cc(-c3cc(OCc4ccccc4)cc(OCc4ccccc4)c3)oc2c1 [S-002-853 (S)]
3. CC(C)NC[C@H](O)COc1ccc2c(=O)cc(-c3cc(O)cc(O)c3)oc2c1 [S-002-857 (S)]
4. CC(C)(C)NC[C@@H](O)COc1ccc2c(=O)cc(-c3cc(OCc4ccccc4)cc(OCc4ccccc4)c3)oc2c1 [S-002-853 (R)]

Data returned:
1. 11.5
2. 10.6
3. 11.3
4. 13.3

###

Provide the recorded Blood glucose, day 9 post treatment for the entries that follow.
System: C57BL/KsBom-db/db mice
measurement-protocol: Blood glucose profile of db/db mice during daily treatment (antihyperglycemic activity)
Assay type: in vivo
experimental-parameters: 25 mg/kg, day 9

Answer for every listed entry: what is its Blood glucose, day 9 post treatment? The entries follow.
1. CC(C)(C)NC[C@H](O)COc1ccc2c(=O)cc(-c3cc(OCc4ccccc4)cc(OCc4ccccc4)c3)oc2c1 [S-002-853 (S)]
2. CC(C)NC[C@H](O)COc1ccc2c(=O)cc(-c3cc(O)cc(O)c3)oc2c1 [S-002-857 (S)]
3. CC(C)NCC(O)COc1ccc2c(=O)cc(-c3cc(O)cc(O)c3)oc2c1 (stereo in doubt) [S-002-857 (R)]
4. CC(C)(C)NC[C@@H](O)COc1ccc2c(=O)cc(-c3cc(OCc4ccccc4)cc(OCc4ccccc4)c3)oc2c1 [S-002-853 (R)]

Data returned:
1. 7.90 ± 1.30 mM
2. 7.56 ± 2.13 mM
3. 11.5 ± 1.00 mM
4. 13.5 ± 4.66 mM
